Data provenance: ChEMBL document CHEMBL3868609

# TEST_DETAILS: Plasma concentration in immature rat prostate weight model at 25 mg/kg, po qd administered for 4 days measured 2 hrs post last dose on day 4
# Assay type: ADME, organism-based
EXPERIMENTAL_READOUT: concentration at 2 h (nM)

- STRUCTURE_SMILES_STRING: "C[C@@]12[C@@H]3C=C[C@@H](C3)[C@@H]1CN(c1ccc(C#N)c(C(F)(F)F)c1)S2(=O)=O"
  EXPERIMENTAL_READOUT: "concentration at 2 h"
  ASSAY_VALUE: 50

----------
# TARGET_DESC: Androgen receptor (Homo sapiens, UniProt P10275)
# TEST_DETAILS: Displacement of [3H]DHT from androgen receptor in human MDA-MB-453 cells
pKi: −log10 of the molar value.

- COMPOUND: "C[C@@]12[C@@H](CN(c3ccc(C#N)c(C(F)(F)F)c3)S1(=O)=O)[C@H]1C[C@H](O)[C@@H]2C1"
  pKi: 8.52
- COMPOUND: "C[C@@]12[C@@H]3CC[C@@H](C3=O)[C@@H]1CN(c1ccc(C#N)c(C(F)(F)F)c1)S2(=O)=O"
  pKi: 8.10
- COMPOUND: "C[C@@]12[C@@H]3CC[C@@H](C3O)[C@@H]1CN(c1ccc(C#N)c(C(F)(F)F)c1)S2(=O)=O (stereo in doubt; 17)"
  pKi: 7.32
- COMPOUND: "N#Cc1ccc(N2C[C@H]3[C@H]4CC[C@H](C4)[C@@]3(C(N)=O)S2(=O)=O)cc1C(F)(F)F"
  pKi: 8.52

----------
# TARGET_DESC: Androgen receptor (Homo sapiens, UniProt P10275)
# TEST_DETAILS: Displacement of [3H]DHT from androgen receptor in human MDA-MB-453 cells
pKi: −log10 of the molar value.
Please note: 1 applies when pKi is 8 or greater, and -1 applies otherwise.

- MOLECULE: "C[C@@]12[C@H]3C[C@H]([C@H](O)C3)[C@@H]1CN(c1ccc(C#N)c(C(F)(F)F)c1)S2(=O)=O"
  CLASS: -1
- MOLECULE: "C[C@@]12[C@@H]3CC[C@@H](C3O)[C@@H]1CN(c1ccc(C#N)c(C(F)(F)F)c1)S2(=O)=O (stereo in doubt; 15)"
  CLASS: -1
- MOLECULE: "C[C@@]12[C@@H]3C=C[C@@H](C3)[C@@H]1CN(c1ccc(C#N)c(C(F)(F)F)c1)S2(=O)=O"
  CLASS: 1
- MOLECULE: "CNC(=O)[C@@]12[C@@H]3CC[C@@H](C3)[C@@H]1CN(c1ccc(C#N)c(C(F)(F)F)c1)S2(=O)=O"
  CLASS: 1
- MOLECULE: "CNC(=O)[C@@]12[C@@H](CN(c3ccc(C#N)c(C(F)(F)F)c3)S1(=O)=O)[C@H]1C[C@H](F)[C@@H]2C1"
  CLASS: 1
- MOLECULE: "N#Cc1ccc(N2C[C@H]3[C@H]4CC[C@H](C4)[C@H]3S2(=O)=O)cc1C(F)(F)F"
  CLASS: 1
- MOLECULE: "C[C@@]12[C@@H]3CC[C@@H](C3)[C@@H]1CN(c1ccc(C#N)c(C(F)(F)F)c1)S2(=O)=O"
  CLASS: 1

----------
# TARGET_DESC: UniProt P10275
# Sequence (P10275 whole entry): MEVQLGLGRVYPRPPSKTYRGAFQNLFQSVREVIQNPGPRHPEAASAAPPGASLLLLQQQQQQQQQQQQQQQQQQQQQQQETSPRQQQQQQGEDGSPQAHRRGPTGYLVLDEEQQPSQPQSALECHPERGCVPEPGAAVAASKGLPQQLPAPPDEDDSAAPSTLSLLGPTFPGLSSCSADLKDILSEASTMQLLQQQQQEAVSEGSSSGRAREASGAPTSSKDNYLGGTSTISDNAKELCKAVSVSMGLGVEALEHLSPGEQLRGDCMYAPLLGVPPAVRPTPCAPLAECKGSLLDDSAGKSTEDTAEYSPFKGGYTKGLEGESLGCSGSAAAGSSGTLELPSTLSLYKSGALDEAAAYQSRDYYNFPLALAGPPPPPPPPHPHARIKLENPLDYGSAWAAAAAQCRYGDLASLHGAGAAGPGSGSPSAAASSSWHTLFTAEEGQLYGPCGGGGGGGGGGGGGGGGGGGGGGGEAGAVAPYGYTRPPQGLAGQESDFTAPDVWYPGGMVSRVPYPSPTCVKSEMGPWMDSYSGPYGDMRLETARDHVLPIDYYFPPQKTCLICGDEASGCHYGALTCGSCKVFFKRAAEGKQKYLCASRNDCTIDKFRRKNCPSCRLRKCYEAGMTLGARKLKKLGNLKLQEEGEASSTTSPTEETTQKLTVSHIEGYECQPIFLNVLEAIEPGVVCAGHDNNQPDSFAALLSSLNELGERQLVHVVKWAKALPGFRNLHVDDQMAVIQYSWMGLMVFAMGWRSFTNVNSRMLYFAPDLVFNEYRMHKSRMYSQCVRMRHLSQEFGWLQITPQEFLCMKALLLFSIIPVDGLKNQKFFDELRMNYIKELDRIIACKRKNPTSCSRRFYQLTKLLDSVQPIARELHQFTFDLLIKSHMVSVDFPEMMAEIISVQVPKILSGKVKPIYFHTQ
# TEST_DETAILS: Antagonist activity at androgen receptor in human MDA-MB-453 cells assessed as inhibition of testosterone-induced transactivation
pIC50: −log10 of the molar value.
// pIC50 lookup, one value per entry

- MOLECULE: "CNC(=O)[C@@]12[C@@H]3CC[C@@H](C3)[C@@H]1CN(c1ccc(C#N)c(C(F)(F)F)c1)S2(=O)=O"
  pIC50: 7.36
- MOLECULE: "C[C@@]12[C@@H](CN(c3ccc(C#N)c(C(F)(F)F)c3)S1(=O)=O)[C@H]1C[C@H](F)[C@@H]2C1"
  pIC50: 7.04
- MOLECULE: "C[C@@]12[C@@H]3C=C[C@@H](C3)[C@@H]1CN(c1ccc(C#N)c(C(F)(F)F)c1)S2(=O)=O"
  pIC50: 7.52
- MOLECULE: "C[C@@]12[C@H]3C[C@H]([C@H](O)C3)[C@@H]1CN(c1ccc(C#N)c(C(F)(F)F)c1)S2(=O)=O"
  pIC50: 6.37
- MOLECULE: "N#Cc1ccc(N2C[C@H]3[C@H]4CC[C@H](C4)[C@@]3(C(N)=O)S2(=O)=O)cc1C(F)(F)F"
  pIC50: 7.26
- MOLECULE: "C[C@@]12[C@@H]3CC[C@@H](C3O)[C@@H]1CN(c1ccc(C#N)c(C(F)(F)F)c1)S2(=O)=O (stereo in doubt; 15)"
  pIC50: 6.35

----------
# Test system: Rattus norvegicus
# TEST_DETAILS: In vivo antagonist activity at androgen receptor in immature rat prostate weight model assessed as testosterone propionate-induced weight of seminal vesicles over full body weight at 15 mg/kg, po qd administered for 4 days relative to testosterone propionate treated control
# Format: functional
# Design: scale not given: the % may be the effect or the level left
# key: entry, value: Activity

- STRUCTURE_SMILES_STRING: "N#Cc1ccc(N2C[C@H]3[C@H]4CC[C@H](C4)[C@@]3(C(N)=O)S2(=O)=O)cc1C(F)(F)F"
  TARGET_DESC: "Rattus norvegicus"
  Activity / %: 55
- STRUCTURE_SMILES_STRING: "CNC(=O)[C@@]12[C@@H](CN(c3ccc(C#N)c(C(F)(F)F)c3)S1(=O)=O)[C@H]1C[C@H](F)[C@@H]2C1"
  TARGET_DESC: "Rattus norvegicus"
  Activity / %: 30
- STRUCTURE_SMILES_STRING: "C[C@@]12[C@@H](CN(c3ccc(C#N)c(C(F)(F)F)c3)S1(=O)=O)[C@H]1C[C@H](F)[C@@H]2C1"
  TARGET_DESC: "Rattus norvegicus"
  Activity / %: 65
- STRUCTURE_SMILES_STRING: "CNC(=O)[C@@]12[C@@H]3CC[C@@H](C3)[C@@H]1CN(c1ccc(C#N)c(C(F)(F)F)c1)S2(=O)=O"
  TARGET_DESC: "Rattus norvegicus"
  Activity / %: 51

----------
# TEST_DETAILS: Plasma concentration in immature rat prostate weight model at 15 mg/kg, po qd administered for 4 days measured 2 hrs post last dose on day 4
# Type: ADME, organism-based

- STRUCTURE_SMILES_STRING: "C[C@@]12[C@@H](CN(c3ccc(C#N)c(C(F)(F)F)c3)S1(=O)=O)[C@H]1C[C@H](F)[C@@H]2C1"
  concentration at 2 h / nM: 2800
- STRUCTURE_SMILES_STRING: "CNC(=O)[C@@]12[C@@H]3CC[C@@H](C3)[C@@H]1CN(c1ccc(C#N)c(C(F)(F)F)c1)S2(=O)=O"
  concentration at 2 h / nM: 7250
- STRUCTURE_SMILES_STRING: "CNC(=O)[C@@]12[C@@H](CN(c3ccc(C#N)c(C(F)(F)F)c3)S1(=O)=O)[C@H]1C[C@H](F)[C@@H]2C1"
  concentration at 2 h / nM: 2900
